# measured-target: Serine/threonine-protein kinase pim-1 (Homo sapiens, UniProt P11309)
# Sequence (P11309 whole entry): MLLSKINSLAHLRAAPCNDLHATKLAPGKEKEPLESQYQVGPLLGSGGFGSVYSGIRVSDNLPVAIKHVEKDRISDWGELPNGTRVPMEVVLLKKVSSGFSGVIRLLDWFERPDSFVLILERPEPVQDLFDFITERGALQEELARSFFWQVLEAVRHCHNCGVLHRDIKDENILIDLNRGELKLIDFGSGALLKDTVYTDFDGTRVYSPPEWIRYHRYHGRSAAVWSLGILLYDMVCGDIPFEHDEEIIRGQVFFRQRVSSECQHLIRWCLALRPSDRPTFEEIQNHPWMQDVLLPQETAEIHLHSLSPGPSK
quantity-name: IC50

{"columns": ["structure-smiles-string", "result"],
 "data": [
  ["NC(=O)c1sc(-c2ccnc(N)n2)nc1-c1ccc(Cl)cc1Cl", "> 1000 nM"],
  ["COc1ccc(-c2nc(-c3ccnc(N)n3)sc2C(N)=O)c(Cl)c1", "> 1000 nM"]
]}

====

# measured-target: CDC7/DBF4 (Cell division cycle 7-related protein kinase/Activator of S phase kinase) (Homo sapiens, UniProt O00311)
# Sequence (Q9UBU7 whole entry): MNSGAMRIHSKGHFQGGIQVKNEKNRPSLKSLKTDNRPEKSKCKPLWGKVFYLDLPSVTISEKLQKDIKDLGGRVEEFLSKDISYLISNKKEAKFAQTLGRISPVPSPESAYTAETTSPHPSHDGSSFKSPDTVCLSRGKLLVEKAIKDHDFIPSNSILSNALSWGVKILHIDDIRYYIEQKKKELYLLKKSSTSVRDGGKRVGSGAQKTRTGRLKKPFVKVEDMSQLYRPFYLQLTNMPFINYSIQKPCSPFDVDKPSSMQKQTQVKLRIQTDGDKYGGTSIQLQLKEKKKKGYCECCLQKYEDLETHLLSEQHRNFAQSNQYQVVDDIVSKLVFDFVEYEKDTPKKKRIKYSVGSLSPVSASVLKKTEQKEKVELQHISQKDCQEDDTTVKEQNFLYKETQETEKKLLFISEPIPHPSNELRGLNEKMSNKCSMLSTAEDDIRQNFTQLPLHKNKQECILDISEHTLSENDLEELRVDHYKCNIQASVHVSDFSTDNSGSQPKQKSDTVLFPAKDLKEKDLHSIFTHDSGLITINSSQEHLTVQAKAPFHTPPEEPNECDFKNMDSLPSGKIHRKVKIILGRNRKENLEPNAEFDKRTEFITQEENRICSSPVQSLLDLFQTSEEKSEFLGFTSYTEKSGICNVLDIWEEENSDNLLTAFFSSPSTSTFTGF
# Sequence (O00311 whole entry): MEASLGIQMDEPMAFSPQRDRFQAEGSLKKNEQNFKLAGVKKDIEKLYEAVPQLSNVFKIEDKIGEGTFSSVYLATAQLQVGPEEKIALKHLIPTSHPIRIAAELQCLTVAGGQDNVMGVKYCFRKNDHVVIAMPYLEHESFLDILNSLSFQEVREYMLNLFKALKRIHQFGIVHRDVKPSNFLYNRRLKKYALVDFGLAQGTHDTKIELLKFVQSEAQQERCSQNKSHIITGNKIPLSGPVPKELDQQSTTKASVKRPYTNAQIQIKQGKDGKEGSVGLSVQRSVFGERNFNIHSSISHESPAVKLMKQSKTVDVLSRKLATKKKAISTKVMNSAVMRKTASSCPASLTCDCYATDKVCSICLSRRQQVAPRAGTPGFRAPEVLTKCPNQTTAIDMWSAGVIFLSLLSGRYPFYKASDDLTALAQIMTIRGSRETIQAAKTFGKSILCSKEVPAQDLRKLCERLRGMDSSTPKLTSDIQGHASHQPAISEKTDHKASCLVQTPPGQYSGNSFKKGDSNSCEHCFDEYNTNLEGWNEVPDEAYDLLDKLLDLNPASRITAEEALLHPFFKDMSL
# assay-procedure: Inhibition of Cdc7/Dbf4 (unknown origin) using 9 uM of ATP as substrate by AlphaScreen assay
# Assay type: protein-complex assay
pIC50: −log10 of the molar value.

{"columns": ["structure-smiles-string", "pIC50"],
 "data": [
  ["NC(=O)c1sc(-c2ccnc(N)n2)nc1-c1ccc(Cl)cc1Cl", 7.74]
]}

====

# measured-target: CDC7/DBF4 (Cell division cycle 7-related protein kinase/Activator of S phase kinase) (Homo sapiens)
# assay-procedure: Inhibition of Cdc7/Dbf4 (unknown origin) using 0.188 uM of ATP as substrate by AlphaScreen assay
# Assay type: protein-complex assay

{"columns": ["structure-smiles-string", "IC50 [nM]"],
 "data": [
  ["CCOC(=O)c1sc(-c2ccncc2)nc1O", 547]
]}

====

# assay-procedure: AUC (0 to infinity) in Sprague-Dawley rat at 2 mg/kg, iv
# Assay type: ADME, organism-based
# Parameters: time infinity, dose 2 mg/kg, route intravenous
# condition-description: plasma
quantity-name: AUC(0-inf) (ng·h/mL)

{"columns": ["structure-smiles-string", "numeric-value"],
 "data": [
  ["NC(=O)c1sc(-c2ccnc(N)n2)nc1-c1ccc(Cl)cc1Cl", 521]
]}

====

# System: HCT-116
# assay-procedure: Cytotoxicity against human HCT116 cells assessed as cell viability after 2 days by Cell Titer-glo assay
# Type: functional, cell-based
# condition-description: HCT-116, 48 h
pIC50: −log10 of the molar value.
Below, each of the molecules is paired with its reported pIC50 value.

{"columns": ["structure-smiles-string", "pIC50"],
 "data": [
  ["COc1ccc(-c2nc(-c3ccnc(N)n3)sc2C(N)=O)c(Cl)c1", 5.34],
  ["NC(=O)c1sc(-c2ccnc(N)n2)nc1-c1ccc(Cl)cc1Cl", 5.38]
]}

====

# measured-target: CDC7/DBF4 (Cell division cycle 7-related protein kinase/Activator of S phase kinase) (Homo sapiens)
# assay-procedure: Inhibition of Cdc7/Dbf4 (unknown origin) using 18 uM of ATP as substrate by AlphaScreen assay
# Type: protein-complex assay

{"columns": ["structure-smiles-string", "IC50, nM"],
 "data": [
  ["NC(=O)c1sc(-c2ccnc(N)n2)nc1-c1ccc(Cl)cc1Cl", 23]
]}

====

# assay-procedure: Intrinsic clearance in mouse liver microsomes at 1 uM after 30 mins by reverse phase HPLC analysis in presence of NADPH
# Format: ADME
# condition-description: read-out: CLH
microsomal CLint at 1 µM listing for selected compounds.
quantity-name: microsomal CLint at 1 µM (µL/min/mg)

{"columns": ["structure-smiles-string", "scale-unit", "numeric-value"],
 "data": [
  ["NC(=O)c1sc(-c2ccnc(N)n2)nc1-c1ccc(Cl)cc1Cl", "µL/min/mg", 57],
  ["COc1ccc(-c2nc(-c3ccnc(N)n3)sc2C(N)=O)c(Cl)c1", "µL/min/mg", 155]
]}

====

# Test system: MDR1
# assay-procedure: Apparent permeability of the compound in pig LLC-PK1 cells expressing MDR1
# Type: ADME, cell-based, Sus scrofa
quantity-name: Papp

{"columns": ["structure-smiles-string", "quantity-name", "result"],
 "data": [
  ["CCOC(=O)c1sc(-c2ccncc2)nc1O", "Papp", "≥ 8.9 ×10⁻⁶ cm/s"]
]}

====

# measured-target: CDC7/DBF4 (Cell division cycle 7-related protein kinase/Activator of S phase kinase) (Homo sapiens, UniProt O00311)
# assay-procedure: Inhibition of Cdc7/Dbf4 (unknown origin) using 0.037 uM of ATP as substrate by AlphaScreen assay
# Assay type: protein-complex assay
pIC50: −log10 of the molar value.

{"columns": ["structure-smiles-string", "pIC50"],
 "data": [
  ["NC(=O)c1sc(-c2ccnc(N)n2)nc1-c1ccc(Cl)cc1Cl", 7.20]
]}

====

# assay-procedure: Intrinsic clearance in human liver microsomes at 1 uM after 30 mins by reverse phase HPLC analysis in presence of NADPH
# Format: ADME
# condition-description: read-out: CLH
microsomal CLint at 1 µM values for the molecules below.

{"columns": ["structure-smiles-string", "scale-unit", "inequality-operator", "microsomal CLint at 1 µM"],
 "data": [
  ["NC(=O)c1sc(-c2ccnc(N)n2)nc1-c1ccccc1C(F)(F)F", "µL/min/mg", "<", 14],
  ["NC(=O)c1sc(-c2ccnc(N)n2)nc1-c1cc(Cl)cc(Cl)c1", "µL/min/mg", "=", 67],
  ["CCOC(=O)c1sc(-c2ccncc2)nc1O", "µL/min/mg", "=", 17],
  ["Cc1ccc(-c2nc(-c3ccnc(N)n3)sc2C(N)=O)c(Cl)c1", "µL/min/mg", "<", 14],
  ["CN(C)c1nc(-c2ccnc(N)n2)sc1C(N)=O", "µL/min/mg", "=", 23],
  ["NC(=O)c1sc(-c2ccnc(N)n2)nc1-c1cc(F)ccc1F", "µL/min/mg", "<", 14],
  ["NC(=O)c1sc(-c2ccnc(N)n2)nc1-c1ccccc1F", "µL/min/mg", "<", 14],
  ["NC(=O)c1sc(-c2ccnc(N)n2)nc1-c1ccc(Cl)cc1Cl", "µL/min/mg", "=", 19],
  ["COc1ccc(-c2nc(-c3ccnc(N)n3)sc2C(N)=O)c(Cl)c1", "µL/min/mg", "=", 43]
]}

====

# measured-target: CDC7/DBF4 (Cell division cycle 7-related protein kinase/Activator of S phase kinase) (Homo sapiens, UniProt O00311)
# assay-procedure: Inhibition of Cdc7/Dbf4 (unknown origin) using 27 uM of ATP as substrate by AlphaScreen assay
# Type: protein-complex assay

{"columns": ["structure-smiles-string", "IC50"],
 "data": [
  ["NC(=O)c1sc(-c2ccnc(N)n2)nc1-c1ccc(Cl)cc1Cl", "44 nM"]
]}

====

# measured-target: Casein kinase II (Homo sapiens, UniProt P19784+P67870+P68400)
# Sequence (P67870 whole entry): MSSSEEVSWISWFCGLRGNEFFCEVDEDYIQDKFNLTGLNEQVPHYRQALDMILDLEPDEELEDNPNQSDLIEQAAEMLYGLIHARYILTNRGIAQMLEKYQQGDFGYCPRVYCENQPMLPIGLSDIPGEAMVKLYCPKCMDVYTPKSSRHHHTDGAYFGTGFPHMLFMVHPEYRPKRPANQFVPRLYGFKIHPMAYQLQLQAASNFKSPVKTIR
# Sequence (P68400 whole entry): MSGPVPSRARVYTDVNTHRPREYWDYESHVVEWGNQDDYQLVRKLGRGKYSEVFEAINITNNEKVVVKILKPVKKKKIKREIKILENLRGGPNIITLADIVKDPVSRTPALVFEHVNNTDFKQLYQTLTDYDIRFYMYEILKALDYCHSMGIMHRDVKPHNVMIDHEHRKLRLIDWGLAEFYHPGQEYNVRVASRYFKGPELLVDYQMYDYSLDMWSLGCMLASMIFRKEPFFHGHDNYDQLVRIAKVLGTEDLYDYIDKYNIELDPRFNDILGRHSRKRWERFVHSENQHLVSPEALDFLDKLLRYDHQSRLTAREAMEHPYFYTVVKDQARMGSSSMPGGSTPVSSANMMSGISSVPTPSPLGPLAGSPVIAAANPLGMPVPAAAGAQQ
# Sequence (P19784 whole entry): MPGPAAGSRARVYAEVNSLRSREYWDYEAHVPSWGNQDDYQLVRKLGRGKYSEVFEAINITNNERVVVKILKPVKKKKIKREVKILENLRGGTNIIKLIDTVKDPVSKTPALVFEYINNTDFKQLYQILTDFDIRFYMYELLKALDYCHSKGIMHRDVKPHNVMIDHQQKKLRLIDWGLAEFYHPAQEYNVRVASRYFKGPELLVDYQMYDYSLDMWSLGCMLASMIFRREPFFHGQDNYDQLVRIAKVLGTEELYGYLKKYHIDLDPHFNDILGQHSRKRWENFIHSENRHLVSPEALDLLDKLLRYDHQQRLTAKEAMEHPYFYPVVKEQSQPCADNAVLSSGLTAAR
# assay-procedure: Inhibition of CK2 (unknown origin) by homogeneous time-resolved fluorescence assay
pIC50: −log10 of the molar value.
Reported pIC50 is given for each of the following compounds.
quantity-name: pIC50

{"columns": ["structure-smiles-string", "quantity-name", "numeric-value"],
 "data": [
  ["COc1ccc(-c2nc(-c3ccnc(N)n3)sc2C(N)=O)c(Cl)c1", "pIC50", 4.19],
  ["NC(=O)c1sc(-c2ccnc(N)n2)nc1-c1ccc(Cl)cc1Cl", "pIC50", 4.54]
]}

====

# assay-procedure: AUC (0 to t) in Sprague-Dawley rat at 2 mg/kg, iv
# Type: ADME, organism-based
# Set-up: dose 2 mg/kg, route intravenous
# condition-description: plasma

{"columns": ["structure-smiles-string", "AUC(0-t)"],
 "data": [
  ["NC(=O)c1sc(-c2ccnc(N)n2)nc1-c1ccc(Cl)cc1Cl", "518 ng·h/mL"]
]}

====

# assay-procedure: Terminal half life in Sprague-Dawley rat at 5 mg/kg, po
# Assay type: ADME, organism-based
# Parameters: dose 5 mg/kg, route oral
# condition-description: in vivo, read-out: beta t1/2 (converted)

{"columns": ["structure-smiles-string", "half-life / min"],
 "data": [
  ["NC(=O)c1sc(-c2ccnc(N)n2)nc1-c1ccc(Cl)cc1Cl", 224]
]}

====

# assay-procedure: Half life in Sprague-Dawley rat at 2 mg/kg, iv
# Type: ADME, organism-based
# Design: dose 2 mg/kg, route intravenous
# condition-description: in vivo

{"columns": ["structure-smiles-string", "half-life (h)"],
 "data": [
  ["NC(=O)c1sc(-c2ccnc(N)n2)nc1-c1ccc(Cl)cc1Cl", 6.56]
]}

====

# assay-procedure: Efflux ratio of permeability of the compound in pig LLC-PK1 cells
# Type: ADME, cell-based, Sus scrofa

{"columns": ["structure-smiles-string", "efflux ratio"],
 "data": [
  ["CCOC(=O)c1sc(-c2ccncc2)nc1O", 1]
]}

====

# measured-target: CDC7/DBF4 (Cell division cycle 7-related protein kinase/Activator of S phase kinase) (Homo sapiens, UniProt O00311)
# assay-procedure: Inhibition of Cdc7/Dbf4 (unknown origin) using 3 uM of ATP as substrate by AlphaScreen assay
# Type: protein-complex assay
pIC50: −log10 of the molar value.

{"columns": ["structure-smiles-string", "pIC50"],
 "data": [
  ["CCOC(=O)c1sc(-c2ccncc2)nc1O", 6.38]
]}
